System: luciferase light signal from pIB29EL (yopE-luxAB)
experiment: microbe, parasite or virus in culture
Assay type: cell-based, Yersinia pseudotuberculosis
condition-info: 100 μM; pIB29EL; Table 2A
Would you please tag the item label 1 when its Inhibition (%) of the luciferase light signal is 70% or above, and label 0 when it is below?

Illustrative cases are given below, each with its answer.
| compound | class |
| --- | --- |
| O=C(N/N=C/c1cc(Br)cc(Br)c1O)c1ccc([N+](=O)[O-])cc1 [Compound 3] | label 1 |
| CC(=O)Oc1c(I)cc(I)cc1C(=O)Nc1ccc(F)cc1 [Compound 17] | label 1 |
| O=C(N/N=C/c1ccc(O)cc1O)c1cc2ccccc2cc1O [Compound 13] | label 1 |

Hello, I need to know if C=CCc1cccc(/C=N/NC(=O)c2ccc([N+](=O)[O-])cc2)c1O [Compound 10] has measured Inhibition (%) of the luciferase light signal not below 70%. Thanks!
label 0

---

System: luciferase light signal from pIB29EL (yopE-luxAB)
experiment: microbe, parasite or virus in culture
Assay type: cell-based, Yersinia pseudotuberculosis
condition-info: 100 μM; strain pIB29EL; Table 2C
measurement-label: Inhibition (%) of the luciferase light signal
Your answer is read as %, so omit the unit and give the number.

Here is how some compounds turned out for Inhibition (%) of the luciferase light signal.
| smiles-structure | u | reported-value |
| --- | --- | --- |
| O=C(Nc1cccc(Cl)c1)c1cc(Cl)ccc1NS(=O)(=O)c1cccc2nsnc12 | % | 55 |
| CC(=O)Oc1c(I)cc(I)cc1C(=O)Nc1cc(Cl)ccc1F | % | 88 |

Supply reported Inhibition (%) of the luciferase light signal belonging to this compound: `CC(=O)Oc1c(Cl)cc(Cl)c(Cl)c1C(=O)Nc1ccc(SC(F)(F)F)cc1`
90

Supply reported Inhibition (%) of the luciferase light signal belonging to this compound: `O=C(Nc1ccc(Cl)cc1)c1ccccc1NS(=O)(=O)c1cccc2nsnc12`
15

---

Tested on: luciferase light signal from pIB29EL (yopE-luxAB)
experiment: microbe, parasite or virus in culture
Format: cell-based, Yersinia pseudotuberculosis
condition-info: 50 μM; pIB29EL; Table 2A
Catalogue of molecules with associated Inhibition (%) of the luciferase light signal

Here is how some molecules turned out for Inhibition (%) of the luciferase light signal.
| smiles-structure | experimental-system | reported-value |
| --- | --- | --- |
| O=C(N/N=C/c1cc(Br)cc(Br)c1O)c1cccnc1 | luciferase light signal from pIB29EL (yopE-luxAB) | 68% |
| O=C(N/N=C/c1cc(O)ccc1O)c1ccco1 | luciferase light signal from pIB29EL (yopE-luxAB) | 41% |
| CC(=O)Oc1c(I)cc(I)cc1C(=O)Nc1ccc(F)cc1 | luciferase light signal from pIB29EL (yopE-luxAB) | 89% |
| O=C(N/N=C/c1c(O)ccc2ccccc12)c1ccccc1 | luciferase light signal from pIB29EL (yopE-luxAB) | 41% |
| O=C(N/N=C/c1ccc(O)cc1O)c1cc2ccccc2cc1O | luciferase light signal from pIB29EL (yopE-luxAB) | 69% |
| O=C(Nc1ccc(Cl)c(Cl)c1)c1cc(Cl)ccc1NS(=O)(=O)c1cccc2nsnc12 | luciferase light signal from pIB29EL (yopE-luxAB) | 69% |
| C=CCc1cccc(/C=N/NC(=O)c2ccc([N+](=O)[O-])cc2)c1O | luciferase light signal from pIB29EL (yopE-luxAB) | 56% |
| CCCCCCc1cc(/C=N/NC(=O)c2ccc([N+](=O)[O-])cc2)c(O)cc1O | luciferase light signal from pIB29EL (yopE-luxAB) | 69% |

Supply reported Inhibition (%) of the luciferase light signal belonging to this molecule: `CC(=O)Oc1c(Br)cc(Br)cc1C(=O)Nc1ccccc1F`
45%

Supply reported Inhibition (%) of the luciferase light signal belonging to this molecule: `CC(=O)Oc1c(I)cc(I)cc1C(=O)Nc1ccccc1`
70%

Supply reported Inhibition (%) of the luciferase light signal belonging to this molecule: `O=C(N/N=C/c1cc(Br)cc(Br)c1O)c1ccc([N+](=O)[O-])cc1`
85%

---

Tested on: luciferase light signal from pIB29EL (yopE-luxAB)
experiment: microbe, parasite or virus in culture
Assay type: cell-based, Yersinia pseudotuberculosis
condition-info: 50 μM; strain pIB29EL; Table 2C
Catalogue of compounds with associated Inhibition (%) of the luciferase light signal
Your answer is read as %, so omit the unit and give the number.

| compound | u | reported-value |
| --- | --- | --- |
| CC(=O)Oc1ccc(I)cc1C(=O)Nc1ccc(Br)cc1 [Compound 51] | % | 87 |
| CC(=O)Oc1c(I)cc(I)cc1C(=O)Nc1cc(Cl)ccc1F [Compound 49] | % | 89 |

Supply reported Inhibition (%) of the luciferase light signal belonging to this compound: O=C(Nc1ccc(Cl)c(Cl)c1)c1ccccc1NS(=O)(=O)c1cccc2nsnc12 [Compound 59]
7

---

System: luciferase light signal from pIB29EL (yopE-luxAB)
experiment: microbe, parasite or virus in culture
Assay type: cell-based, Yersinia pseudotuberculosis
condition-info: 5 μM; strain pIB29EL; Table 2C
Lab note - cut at 60% for Inhibition (%) of the luciferase light signal: T if strictly below, F if not.

| smiles-structure | experimental-system | class |
| --- | --- | --- |
| O=C(Nc1cc(Cl)ccc1F)c1cc(I)cc(I)c1O | luciferase light signal from pIB29EL (yopE-luxAB) | T |
| O=C(Nc1ccc(Br)cc1)c1cc(I)ccc1O | luciferase light signal from pIB29EL (yopE-luxAB) | T |
| O=C(Nc1ccc(Cl)cc1)c1ccccc1NS(=O)(=O)c1cccc2nsnc12 | luciferase light signal from pIB29EL (yopE-luxAB) | T |

Inhibition (%) of the luciferase light signal under 60%? Item: `CC(=O)Oc1c(I)cc(I)cc1C(=O)Nc1cc(Cl)ccc1F`
T

Inhibition (%) of the luciferase light signal under 60%? Item: `CC(=O)Oc1ccc(I)cc1C(=O)Nc1ccc(Cl)cc1`
F

Inhibition (%) of the luciferase light signal under 60%? Item: `O=C(Nc1ccc(Cl)cc1)c1cc(I)ccc1O`
F

Inhibition (%) of the luciferase light signal under 60%? Item: `O=C(Nc1cccc(Cl)c1)c1cc(Cl)ccc1NS(=O)(=O)c1cccc2nsnc12`
T

Inhibition (%) of the luciferase light signal under 60%? Item: `NC(=O)C(=O)N/N=C/c1cc(Br)cc(Br)c1O`
T

---

Tested on: luciferase light signal from pIB29EL (yopE-luxAB)
experiment: microbe, parasite or virus in culture
Type: cell-based, Yersinia pseudotuberculosis
condition-info: 20 μM; strain pIB29EL; Table 2C
measurement-label: Inhibition (%) of the luciferase light signal
Your answer is read as %, so omit the unit and give the number.

| smiles-structure | u | reported-value |
| --- | --- | --- |
| O=C(Nc1cc(Cl)ccc1F)c1cc(I)cc(I)c1O | % | 88 |

Supply reported Inhibition (%) of the luciferase light signal belonging to this molecule: `O=C(Nc1ccc(SC(F)(F)F)cc1)c1cc2cc(Br)ccc2c(Br)c1O`
43

Supply reported Inhibition (%) of the luciferase light signal belonging to this molecule: `O=C(Nc1ccc(Cl)cc1)c1ccccc1NS(=O)(=O)c1cccc2nsnc12`
10

Supply reported Inhibition (%) of the luciferase light signal belonging to this molecule: `O=C(Nc1ccc([N+](=O)[O-])cc1Cl)c1cc(Cl)ccc1O`
96

Supply reported Inhibition (%) of the luciferase light signal belonging to this molecule: `O=C(Nc1ccc(Br)cc1)c1cc(I)ccc1O`
62

---

Tested on: luciferase light signal from pIB29EL (yopE-luxAB)
experiment: microbe, parasite or virus in culture
Assay type: cell-based, Yersinia pseudotuberculosis
condition-info: Yersinia pseudotuberculosis, read-out: Inhibition (%) of the luciferase light signal, 20 μM; strain pIB29EL; Table 2C
Would you please tag the item 1 when its inhibition at 20 µM is 40% or above, and 0 when it is below?

Illustrative cases are given below, each with its answer.
| smiles-structure | class |
| --- | --- |
| O=C(Nc1ccccc1F)c1cc(Br)cc(Br)c1O | 0 |
| O=C(COc1ccccc1)N/N=C/c1c(O)ccc2ccccc12 | 0 |
| CC(C)(C)c1ccc(NC(=O)c2c(O)c(Cl)cc(Cl)c2Cl)cc1 | 0 |

Hello, I need to know if `CCCCCCCc1ccc(NC(=O)c2cc(I)cc(I)c2O)cc1` has measured inhibition at 20 µM not below 40%. Thanks!
1

Hello, I need to know if `CC(C)(C)c1ccc(NC(=O)c2cc(I)cc(I)c2O)cc1` has measured inhibition at 20 µM not below 40%. Thanks!
0

Hello, I need to know if `O=C(Nc1ccc(Cl)cc1)c1ccccc1O` has measured inhibition at 20 µM not below 40%. Thanks!
1
